Can you tell me GTPγS-Binding promoting activity (EC50 nM) for the items I'm about to list?
# system under test: T1, human GPR7 (human, UniProt P48145 1-328)
# T1 sequence: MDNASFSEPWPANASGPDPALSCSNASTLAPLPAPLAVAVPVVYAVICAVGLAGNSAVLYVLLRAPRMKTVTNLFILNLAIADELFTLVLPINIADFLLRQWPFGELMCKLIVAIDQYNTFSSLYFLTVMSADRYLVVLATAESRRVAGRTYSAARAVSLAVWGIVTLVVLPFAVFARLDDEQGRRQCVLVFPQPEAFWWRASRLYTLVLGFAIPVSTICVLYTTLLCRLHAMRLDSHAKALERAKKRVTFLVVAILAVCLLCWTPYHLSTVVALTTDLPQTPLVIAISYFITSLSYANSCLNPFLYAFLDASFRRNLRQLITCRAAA
# assay summary: cell-based or functional assay
Where no end group is shown, it is not given here. [ ]: non-standard residue; d: D form. Met(O) = CS(=O)CC[C@H](N)C(=O)O
Respond numerically; units are nM and should not be typed.

stdin: Any idea what GTPγS-Binding promoting activity (EC50 nM) was measured for XYKHVASPRYHTVGRAAGLLMGL (D-Trp at position 1) [[D-Trp1]-human GPR8 ligand (1-23)] ?
stdout: 2.3

stdin: Any idea what GTPγS-Binding promoting activity (EC50 nM) was measured for WYKHVASPRYHTVGRAAGL [human GPR8 ligand (1-19)] ?
stdout: 84

stdin: Any idea what GTPγS-Binding promoting activity (EC50 nM) was measured for YKHVASPRYHTVGRAAGLLMGL [human GPR8 ligand (2-23)] ?
stdout: 7410

stdin: Any idea what GTPγS-Binding promoting activity (EC50 nM) was measured for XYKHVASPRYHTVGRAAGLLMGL (N-terminal Fmoc (N-9-fluorenylmethoxycarbonyl) on Trp1) [Fmoc-human GPR8 ligand (1-23)] ?
stdout: 6.6

stdin: Any idea what GTPγS-Binding promoting activity (EC50 nM) was measured for WYKHTASPRYHTVGRAAGLLMGL [porcine GPR8 ligand (1-23)] ?
stdout: 0.35

stdin: Any idea what GTPγS-Binding promoting activity (EC50 nM) was measured for WYKHTASPRYHTVGRAAGLL[Met(O)]GL [oxidized porcine GPR8 ligand (1-23)] ?
stdout: 1.2

stdin: Any idea what GTPγS-Binding promoting activity (EC50 nM) was measured for WYKHVASPRYHTVGRAAG [human GPR8 ligand (1-18)] ?
stdout: 6200

stdin: Any idea what GTPγS-Binding promoting activity (EC50 nM) was measured for WYKHVASPRYHTVGRAAGLLXGL (Met (O) (methionine sulfoxide) at position 21) [oxidized human GPR8 ligand (1-23)] ?
stdout: 1.6

stdin: Any idea what GTPγS-Binding promoting activity (EC50 nM) was measured for WYKHVASPRYHTVGRAAGLLMGLRRSPYLW [human GPR8 ligand (1-30)] ?
stdout: 0.67

stdin: Any idea what GTPγS-Binding promoting activity (EC50 nM) was measured for WYKHVASPRYHTVGRAAGLLMGL [human GPR8 ligand (1-23)] ?
stdout: 0.74

stdin: Any idea what GTPγS-Binding promoting activity (EC50 nM) was measured for {3‑indolepropanoyl}-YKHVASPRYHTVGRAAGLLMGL [[N-3-Indolepropanyl-Tyr2]-human GPR8 ligand (2-23)] ?
stdout: 0.85

stdin: Any idea what GTPγS-Binding promoting activity (EC50 nM) was measured for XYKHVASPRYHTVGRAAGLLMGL (Nα-acetyl on Trp1) [[Nα-Acetyl-Trp1]-human GPR8 ligand (1-23)] ?
stdout: 1.5

stdin: Any idea what GTPγS-Binding promoting activity (EC50 nM) was measured for WYKHVASPRYHTVGRAAGLL [human GPR8 ligand (1-20)] ?
stdout: 0.88

stdin: Any idea what GTPγS-Binding promoting activity (EC50 nM) was measured for Ac-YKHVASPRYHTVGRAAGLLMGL [[N-Acetyl-Tyr2]-human GPR8 ligand (2-23)] ?
stdout: 7000
